system-tested: UniProtKB Q9Y4K0
Sequence (Q9Y4K0 26-774): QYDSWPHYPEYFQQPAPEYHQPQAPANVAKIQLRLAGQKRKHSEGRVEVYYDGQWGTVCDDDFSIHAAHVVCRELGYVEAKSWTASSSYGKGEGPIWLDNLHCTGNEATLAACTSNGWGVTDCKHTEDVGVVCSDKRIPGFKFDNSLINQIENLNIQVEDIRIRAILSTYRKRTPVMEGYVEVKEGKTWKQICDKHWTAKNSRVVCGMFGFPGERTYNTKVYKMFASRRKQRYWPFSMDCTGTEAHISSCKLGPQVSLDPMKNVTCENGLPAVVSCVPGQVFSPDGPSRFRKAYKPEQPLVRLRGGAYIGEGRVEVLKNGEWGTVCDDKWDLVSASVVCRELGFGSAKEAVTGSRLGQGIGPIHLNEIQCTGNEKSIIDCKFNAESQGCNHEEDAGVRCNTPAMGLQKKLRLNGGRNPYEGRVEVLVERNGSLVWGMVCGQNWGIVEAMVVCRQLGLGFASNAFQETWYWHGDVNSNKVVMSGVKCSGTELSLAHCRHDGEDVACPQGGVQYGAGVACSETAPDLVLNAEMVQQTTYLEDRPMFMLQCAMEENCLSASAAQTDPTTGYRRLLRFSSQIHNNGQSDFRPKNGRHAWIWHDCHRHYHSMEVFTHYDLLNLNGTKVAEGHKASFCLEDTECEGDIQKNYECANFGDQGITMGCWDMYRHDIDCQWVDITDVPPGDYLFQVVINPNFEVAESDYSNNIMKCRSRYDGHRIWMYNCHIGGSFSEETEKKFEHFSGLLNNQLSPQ
reported-property: IC50

Item Cc1c(-c2cccc(S(=O)(=O)N(C)C)c2)c2ncccc2n1C/C(F)=C/CN.Cl.Cl [PXS-5153A] was tested on UniProtKB Q9Y4K0; the reported IC50 is 38 nM

====

system-tested: Recombinant dog LOXL2 (Canis lupus familiaris)
Sequence (A0A8I3P9Y5 1-777): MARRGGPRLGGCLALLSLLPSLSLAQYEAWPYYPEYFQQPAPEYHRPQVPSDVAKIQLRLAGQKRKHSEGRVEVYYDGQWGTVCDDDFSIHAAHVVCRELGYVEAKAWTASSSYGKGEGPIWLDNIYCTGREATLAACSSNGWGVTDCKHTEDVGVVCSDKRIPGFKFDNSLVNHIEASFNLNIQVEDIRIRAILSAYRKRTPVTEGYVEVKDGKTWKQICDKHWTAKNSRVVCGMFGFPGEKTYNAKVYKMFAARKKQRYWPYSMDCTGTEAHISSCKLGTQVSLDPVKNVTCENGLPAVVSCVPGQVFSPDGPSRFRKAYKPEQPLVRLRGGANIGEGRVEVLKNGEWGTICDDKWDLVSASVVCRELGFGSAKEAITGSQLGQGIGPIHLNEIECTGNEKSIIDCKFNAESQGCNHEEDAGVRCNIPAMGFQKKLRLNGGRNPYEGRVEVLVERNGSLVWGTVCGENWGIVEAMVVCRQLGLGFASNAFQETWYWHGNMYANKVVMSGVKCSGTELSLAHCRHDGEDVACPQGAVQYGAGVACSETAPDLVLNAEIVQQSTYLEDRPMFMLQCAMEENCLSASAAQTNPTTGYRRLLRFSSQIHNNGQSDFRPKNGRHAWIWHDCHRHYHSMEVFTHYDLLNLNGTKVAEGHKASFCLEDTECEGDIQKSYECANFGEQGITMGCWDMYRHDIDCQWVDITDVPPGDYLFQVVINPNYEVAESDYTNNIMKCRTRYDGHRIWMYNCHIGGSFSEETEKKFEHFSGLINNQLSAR
measurement-notes: Amplex-Red fluorometric enzymatic activity assay, recombinant dog LOXL2
condition-details: 30 minute pre-incubation; average of at least three experiments
reported-property: pIC50
// pIC50: -log10(molar conc.)

Item Cc1c(-c2cccc(S(=O)(=O)N(C)C)c2)c2ncccc2n1C/C(F)=C/CN.Cl.Cl [PXS-5153A] was tested on Recombinant dog LOXL2 (Canis lupus familiaris); the reported pIC50 is 8.05

====

system-tested: Recombinant mouse LOXL2 (Mus musculus, UniProt P58022)
Sequence (P58022 26-776): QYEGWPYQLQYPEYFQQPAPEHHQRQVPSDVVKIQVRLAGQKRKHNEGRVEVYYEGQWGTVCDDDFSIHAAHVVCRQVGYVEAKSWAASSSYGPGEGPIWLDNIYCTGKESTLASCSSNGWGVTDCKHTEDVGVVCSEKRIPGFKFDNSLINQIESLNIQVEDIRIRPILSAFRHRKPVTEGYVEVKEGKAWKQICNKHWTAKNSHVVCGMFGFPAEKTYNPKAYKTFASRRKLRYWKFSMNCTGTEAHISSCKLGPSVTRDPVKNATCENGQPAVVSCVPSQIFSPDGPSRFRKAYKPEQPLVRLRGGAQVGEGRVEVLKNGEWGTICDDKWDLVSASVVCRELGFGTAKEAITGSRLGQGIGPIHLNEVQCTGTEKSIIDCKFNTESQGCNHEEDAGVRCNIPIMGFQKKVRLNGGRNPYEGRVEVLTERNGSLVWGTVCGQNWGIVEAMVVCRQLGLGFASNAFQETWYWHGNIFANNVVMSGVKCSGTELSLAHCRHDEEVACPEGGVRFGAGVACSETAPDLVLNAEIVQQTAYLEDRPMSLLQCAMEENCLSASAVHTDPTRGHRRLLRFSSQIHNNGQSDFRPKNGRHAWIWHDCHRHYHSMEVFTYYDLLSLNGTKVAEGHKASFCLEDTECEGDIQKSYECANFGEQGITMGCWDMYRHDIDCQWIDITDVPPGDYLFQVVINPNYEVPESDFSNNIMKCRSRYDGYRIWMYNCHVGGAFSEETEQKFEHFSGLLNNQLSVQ
measurement-notes: Amplex-Red fluorometric enzymatic activity assay, recombinant mouse LOXL2
condition-details: 30 minute pre-incubation; average of at least three experiments
reported-property: IC50
Could you give the number and then its unit, please?

Just so you know, measured IC50 for Cc1c(-c2cccc(S(=O)(=O)N(C)C)c2)c2ncccc2n1C/C(F)=C/CN.Cl.Cl [PXS-5153A] came out at 0.021 µM

====

system-tested: Recombinant rat LOXL2 (Rattus norvegicus)
Sequence (B5DF27 26-776): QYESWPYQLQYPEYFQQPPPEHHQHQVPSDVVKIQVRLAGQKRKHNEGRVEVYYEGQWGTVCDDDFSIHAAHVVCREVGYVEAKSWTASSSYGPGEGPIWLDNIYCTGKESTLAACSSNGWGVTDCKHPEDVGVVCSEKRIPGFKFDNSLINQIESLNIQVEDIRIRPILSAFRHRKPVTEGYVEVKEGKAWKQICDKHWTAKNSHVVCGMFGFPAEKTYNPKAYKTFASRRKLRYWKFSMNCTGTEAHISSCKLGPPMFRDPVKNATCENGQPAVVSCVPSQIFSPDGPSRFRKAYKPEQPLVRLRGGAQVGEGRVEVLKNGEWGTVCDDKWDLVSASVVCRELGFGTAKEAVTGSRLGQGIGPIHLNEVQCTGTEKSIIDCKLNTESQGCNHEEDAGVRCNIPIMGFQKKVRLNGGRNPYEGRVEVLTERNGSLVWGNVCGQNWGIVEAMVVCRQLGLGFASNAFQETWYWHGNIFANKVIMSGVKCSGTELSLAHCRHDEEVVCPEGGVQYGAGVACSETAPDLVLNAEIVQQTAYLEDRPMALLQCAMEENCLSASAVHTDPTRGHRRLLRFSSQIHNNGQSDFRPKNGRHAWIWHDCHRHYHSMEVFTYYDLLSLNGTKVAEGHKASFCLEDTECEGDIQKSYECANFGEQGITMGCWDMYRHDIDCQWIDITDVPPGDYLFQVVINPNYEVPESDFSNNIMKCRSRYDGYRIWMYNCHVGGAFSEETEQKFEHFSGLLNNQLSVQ
measurement-notes: Amplex-Red fluorometric enzymatic activity assay, recombinant rat LOXL2
condition-details: 30 minute pre-incubation; average of at least three experiments
reported-property: IC50

Item Cc1c(-c2cccc(S(=O)(=O)N(C)C)c2)c2ncccc2n1C/C(F)=C/CN.Cl.Cl [PXS-5153A] was tested on Recombinant rat LOXL2 (Rattus norvegicus); the reported IC50 is 15 nM

====

Protein target, amino acids: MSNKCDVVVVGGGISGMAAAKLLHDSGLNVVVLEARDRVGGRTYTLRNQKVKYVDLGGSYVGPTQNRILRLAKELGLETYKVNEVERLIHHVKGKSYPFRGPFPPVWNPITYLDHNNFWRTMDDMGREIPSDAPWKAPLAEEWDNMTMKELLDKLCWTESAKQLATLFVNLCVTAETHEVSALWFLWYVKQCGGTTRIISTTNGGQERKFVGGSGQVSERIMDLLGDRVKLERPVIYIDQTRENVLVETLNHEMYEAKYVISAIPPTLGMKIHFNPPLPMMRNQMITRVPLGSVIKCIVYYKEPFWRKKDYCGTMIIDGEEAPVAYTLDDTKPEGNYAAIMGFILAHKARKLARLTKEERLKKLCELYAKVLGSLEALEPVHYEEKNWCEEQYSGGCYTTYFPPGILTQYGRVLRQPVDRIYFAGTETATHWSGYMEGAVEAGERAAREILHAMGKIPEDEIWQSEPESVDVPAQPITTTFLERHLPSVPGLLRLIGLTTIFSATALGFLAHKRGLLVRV
pIC50: −log10 of the molar value.
reported-property: pIC50

Just so you know, measured pIC50 for Cc1c(-c2cccc(S(=O)(=O)N(C)C)c2)c2ncccc2n1C/C(F)=C/CN.Cl.Cl [PXS-5153A] came out at < 4.52
